FYI, the data here is from patent US20210054097A1.

- target_of_assay: T1, FX activation peptide 12-mer GEAPDSITWKPY (human)
- T1 peptide: GEAPDSITWKPY-biotin
- test_method_notes: peptide ELISA
Ends that are not written are not given here.
test_readout: ELISA signal relative to background
I only need the number, thanks.

May I ask what ELISA signal relative to background has been recorded for Nb 730C03 (VHH, monovalent Nanobody; also called Nb 730003; not shown: C-terminal FLAG3 and HIS6 tag) VHH: EVQLVESGGGVVQPGGSLRLSCVASGFTFSDYAMSWVRQAPGKGLEWVSGITSGSGRTYYADSVKGRFTISRDNSKNTVYLQMNSLRPEDTALYYCAAAILRGYRKTYDYWGQGTLVTVSS ?
1.24

Try this binder too: Nb 729C08 (VHH, monovalent Nanobody; also called Nb 729008; not shown: C-terminal FLAG3 and HIS6 tag) VHH: EVQLVESGGGVVQPGGSLRLSCAASGFTFSDYAMSWVRQAPGKGLEWVSGITGGGRTYYADSVKGRFTISRDNSKNTLYLQMNSLRPEDTALYYCAAAILTRTRRTYDYWGQGTLVTVSS
1.15

Try this binder too: Nb 701B09 (VHH, monovalent Nanobody; also called Nb 701609; not shown: C-terminal FLAG3 and HIS6 tag) VHH: EVQLVESGGGVVQPGGSLRLSCAASGRTFSTYAMGWFRQAPGKEREFVAAISWSGSRTYYADSVKGRFTISRDNSKNTVYLQMNSLRPEDTALYYCAADATPANGELDYWGQGTLVTVSS
0.86

Try this binder too: Nb 702C12 (VHH, monovalent Nanobody; not shown: C-terminal FLAG3 and HIS6 tag) VHH: EVQLVESGGGVVQPGGSLRLSCVASGRTFSRYAMGWFRQAPGKEREFVAAISRRGGSTNYADSVKGRFTISRDNSKNTVYLQMNSLRPEDTALYYCAADYSSGDGYLDYWGQGTLVTVSS
0.93

Try this binder too: Nb 501A02 (VHH, monovalent control Nanobody; also called control Nanobody; not shown: C-terminal FLAG3 and HIS6 tag) VHH: EVQLVESGGGLVQPGGSLRLSCAASGFTFSNYEMSWVRQAPGKGLEWVSDIGSGGGVSTYYADSVKGRFTISRDNAKNTLYLQMNSLKPEDTAMYYCARGWTYGSDGMDYWGKGTLVTVSS
0.94

Try this binder too: Nb 701D07 (VHH, monovalent Nanobody; not shown: C-terminal FLAG3 and HIS6 tag) VHH: EVQLVESGGGVVQPGGSLRLSCAASGGTLSRYAMGWFRQAPGKEREFVAAITRRGSRTYYADSVKGRFTISRDNSKNTVYLQMNSLRPEDTALYYCAADLAPGDYALDYWGQGTLVTVSS
0.8

Try this binder too: Nb 729A04 (VHH, monovalent Nanobody; not shown: C-terminal FLAG3 and HIS6 tag) VHH: EVQLVESGGGVVQPGGSLRLSCAASGFTFSDYAMSWVRQAPGKGLEWVSGITSGGGRTYYADSVKGRFTISRDNSKNTLYLQMNSLRPEDTALYYCAAVRTLGLRGSYDYWGQGTLVTVSS
1.05

Try this binder too: Nb 701C06 (VHH, monovalent Nanobody; not shown: C-terminal FLAG3 and HIS6 tag) VHH: EVQLVESGGGVVQPGGSLRLSCAASGRTFSTYAMGWFRQAPGKEREFVAAISRRGGRTYYADSVKGRFTISRDNSKNTVYLQMNSLRPEDTALYYCAADATARDGLLDYWGQGTLVTVSS
0.9
